# assay_summary: Wnt/beta-catenin pathway activators, primary screen, cell-based, plate reader, single point (AID 743398);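 also: 0% = neutral control wells and 100% = positive control wells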
# assay_conditions: Wnt/beta-catenin reporter cell assay, activator, at 9.35 µM, active compounds read high
About 3,600 (1.2%) of roughly 300,000 compounds were called active. For the sample, actives were picked, then their nearest neighbours and some compounds at random.
// activation lookup, one value per entry

compound | activation, %
CCc1ccccc1NC(=O)CSc1nnc(-c2ccncc2)o1 | 0.131
Cc1[nH]nc2c1C(c1ccc(Br)cc1)NC2=O (stereo unspecified) | 1.31
CCOC(=O)c1ccc(NC(=S)Nc2cc(C)cc(C)n2)cc1 | -1.38
COC(=O)c1ccc2nc(-c3ccc(OC)c(OC)c3)c(Cc3ccccc3)n2c1 | -2.38
CCNC(=O)C1(C)CCCN1C(=O)c1ccc(N(C)C)cc1 (stereo unspecified) | -4.12
C=CCN=C1NC(c2ccccc2)C(C(=O)OC)=C(C)N1Cc1ccc(C(F)(F)F)cc1 (stereo unspecified) | -8.4
Cc1ccc2nc(N3C(=O)C(O)=C(C(=O)c4ccco4)C3c3cccc(O)c3)sc2c1 (stereo unspecified) | 8.29
c1ccc(C(=NNc2nc3ccccc3s2)c2ccccn2)cc1 | 5.23
CCOc1cc(/C=C2\C(=N)N3N=C(C)SC3=NC2=O)ccc1OCCOc1ccccc1 | 0.097
COc1cccc(OCC(=O)NCCS(=O)(=O)N2CCN(c3ccccc3)CC2)c1 | -0.863
Cc1cccc(-c2cnc(C(O)c3ccc4ccccc4c3)[nH]2)c1 (stereo unspecified) | -0.607
CCN(CC)CCOc1ccc2c(c1)C(=NNC(=O)c1ccccn1)c1cc(OCCN(CC)CC)ccc1-2 | 54.2
CCOC(=O)c1cc(-c2sc(NC(=O)c3ccccc3)nc2C)n(-c2ccc(Br)cc2)n1 | -1.56
Cc1ccc(S(=O)(=O)N2C[C@]3(O)C[C@@H]4C(=O)N(c5ccccc5)C(=O)[C@@H]4C[C@]3(OC(=O)NC3CC3)C2)cc1 | -1.31
c1ccc2sc(NN=C3CCCC3)nc2c1 | 52.4
CN(C)C(=O)c1cccc(-c2cnc3sc(NCc4ccc5c(c4)OCO5)nn23)c1 | -6.39
O=C(CNC(=O)c1ccccc1F)c1ccc(Br)cc1 | 39
CCCCNC(=O)C[C@@H]1C[C@@]2(C(=O)OCC)CCC=C2N(Cc2cccc3ccccc23)C1=O | -1.83
Cc1ccc(C(=O)NNC(=O)c2cccs2)cc1 | 6.9
O=C(C(=O)N1CCC(CNC(=O)c2cccnc2Cl)CC1)c1cccs1 | 2.94
C[C@H]([C@@H](O)[C@@H](O)[C@@H](C)C(C)(C)C)[C@H]1CC[C@H]2C3CC[C@H]4C[C@H](OS(=O)(=O)O)[C@@H](OS(=O)(=O)O)C[C@]4(C)[C@H]3CC[C@]12C (stereo partly specified) | -0.623
CCc1ccccc1NC(=O)CSc1nnc([C@@H](NC(=O)OC(C)(C)C)C(C)CC)o1 (stereo partly specified) | 31.4
Cc1cccc(OCC(=O)NCCCNC(=O)c2ccccn2)c1 | -0.523
O=C(NCCOc1ccccc1)c1ccccc1F | 2.79
CCOC(=O)c1cn[nH]c1NC(=S)Nc1ccccc1 | 48.2
O=C(NCc1ccccc1)[C@H]1CCCN1C(=O)[C@H]1CCCN1C(=O)c1cc(F)cc(F)c1 | 0.924
Nc1ncnc2c1ncn2[C@@H]1O[C@H](C(=O)N[C@@H](CCc2ccccc2)C(=O)NCC(=O)N2CCOCC2)[C@@H](O)[C@H]1O | -8.65
Brc1ccc2nc(N3CCCC3)sc2c1 | 43.7
O=C(O)c1cc(S(=O)(=O)N(Cc2ccccc2)c2ccccc2)ccc1Cl | 1.67
CC(O)(c1cccc(F)c1)c1nc(-c2ccc3c(c2)OCO3)cs1 (stereo unspecified) | -1.63
CC(C)C1CCN(C(=O)C2CCC(=O)N(C3CCCCCC3)C2)CC1 (stereo unspecified) | 0.269
CNC(=O)c1ccc(CN(C)C(=O)c2cc(C3CC3)nc3c2cnn3C(C)C)cc1 | 7.06
COc1ccc(OCCCn2cccc2/C=C2/C(=N)N3OC(C)=CC3=NC2=O)cc1 | 21
CCc1nc2c(OCCOc3ccccc3)cccn2c1N(C=O)Cc1ccc(OC)cc1 | -2.79
COc1ccc(NC(=O)C2(C)Cc3c(-c4cccc(NC(C)=O)c4)ccnc3O2)cc1OC (stereo unspecified) | -0.993
O=C(CSc1cccc[n+]1[O-])c1ccc(-c2ccccc2)cc1 | 10.1
CCOc1ccc(Cl)cc1-c1cc(C(=O)NCc2cccs2)[nH]n1 | -2.6
C[C@@H]1Cn2cnc(C(=O)Nc3ccc(CNC(=O)OC(C)(C)C)cc3)c2C(=O)N1 | -0.752
CN(CCc1ccccc1)C(=O)c1cccc(NC(=O)Cc2cccc(NC(=O)C3CCCN(C(=O)C4CCC4)C3)c2)c1 (stereo unspecified) | -3.51
CN(C)c1ccc(CNC23CN4CN(CN(C4)C2)C3)cc1 | 35.9
Cc1ccc2nc(N3CCN(C(=O)c4ccco4)CC3)sc2c1 | 40
